Reference source for all entries: paper PMC9482650

assay target: SCRIB_1, Q14160
Sequence (Q14160 718-814): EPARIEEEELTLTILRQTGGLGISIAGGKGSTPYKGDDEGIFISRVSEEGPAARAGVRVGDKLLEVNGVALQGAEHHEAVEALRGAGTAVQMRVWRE
test details: holdup assay
Set-up: key: below the threshold = too weak to quantify, mostly under pKd 3.1 to 4
condition parameters: plain residues with an end cap or a label only (N-terminal biotin on a linker: ado-ado)
Assign label 1 whenever pKd does not fall below 4; assign label 0 whenever it does.

Please review the entries below; each comes with its answer.
binder: LLQEEWETVM [PTH1R, Q03431]
label: label 0

binder: FLVTEFNVML [DFNB31, Q9P202]
label: label 0

binder: PLPPEEESWV [GAS2L2, Q8NHY3]
label: label 1

// inclusive: pKd at least 4? input: SAGADSETHC [SLCO1B1, Q9Y6L6]
label 0

Has QKASRNESTF [POLR1D, P0DPB6] a recorded pKd greater than or equal to 4?
label 0

Threshold query (pKd >= 4) on GTMFLRETSL [GUCY1A2, P33402]
label 1

Check if pKd >= 4 (inclusive). Item: WAKEKQHTRL [SLC17A1, Q14916]
label 1
